Study System: Alpha-1A adrenergic receptor (Homo sapiens)
Sequence (P35348 whole entry): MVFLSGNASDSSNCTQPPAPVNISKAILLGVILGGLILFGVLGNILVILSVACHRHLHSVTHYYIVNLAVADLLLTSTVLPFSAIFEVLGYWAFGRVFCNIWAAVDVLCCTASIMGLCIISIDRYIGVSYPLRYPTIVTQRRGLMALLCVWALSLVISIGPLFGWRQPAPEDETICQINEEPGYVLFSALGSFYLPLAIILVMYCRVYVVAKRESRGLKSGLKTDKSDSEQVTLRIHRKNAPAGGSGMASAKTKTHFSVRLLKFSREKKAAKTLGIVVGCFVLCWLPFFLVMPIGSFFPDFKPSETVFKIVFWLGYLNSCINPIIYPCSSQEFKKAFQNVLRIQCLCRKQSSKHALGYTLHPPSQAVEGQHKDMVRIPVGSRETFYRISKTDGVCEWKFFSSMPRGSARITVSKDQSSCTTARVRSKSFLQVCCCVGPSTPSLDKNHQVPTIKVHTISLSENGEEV
Listing of IC50 toward Alpha-1A adrenergic receptor (Homo sapiens), each taken from a published source.
Result Type: IC50 (nM)

Return value of IC50 for input COc1ccc2c(c1)CCN1C(C)c3[nH]c4ccccc4c3CC21 (stereo not given) , no commentary.
8670

(I) Cc1cccc(C(=O)N[C@H]2CC[C@@H](Nc3ncc(C)c(N(C)C)n3)CC2)c1
(II) N#Cc1ccc(N2CCN(CCc3ccc(CN4C(=O)c5ccccc5C4=O)cc3)CC2)cc1
(III) CN(C)CC1CC2c3ccccc3Cc3ccc(Cl)cc3N2O1 (stereo not given)
(IV) N#Cc1ccc(N2CCN(CCc3ccc(CN4C(=O)c5ccccc5C4=O)cc3)CC2)c(F)c1
Please rank these compounds by IC50 in descending order. Write the labels in rank order as requested.
I, IV, II, III
(I: 2790 nM, IV: 128 nM, II: 89.2 nM, III: 14.5 nM)
